Parameter pIC50: see the listing below.
Tested on: Human umbilical vascular endothelial cells
Experiment: Human umbilical vascular endothelial cells proliferation assay
Format: cell-based
Conditions: Homo sapiens, Endothelial cell; HGF-induced proliferation; read-out: HGF (25 ng/mL) IC50 Values
pIC50: −log10 of the molar value.
Property: pIC50

O=C1CC[C@@H](N2Cc3c(OCc4ccc(CN5CCOCC5)cc4)cccc3C2=O)C(=O)N1 [R-enantiomer] | 4.42
O=C1CCC(N2Cc3c(OCc4ccc(CN5CCOCC5)cc4)cccc3C2=O)C(=O)N1 (racemic) [Racemate] | 4.62
O=C1CC[C@H](N2Cc3c(OCc4ccc(CN5CCOCC5)cc4)cccc3C2=O)C(=O)N1 [Test compound] | 4.29

---

Tested on: IgG
Assay: IgG production in normal B cell / PBMC differentiation cultures (ELISA)
Details: Homo sapiens, B-cell, read-out: secreted IgG production IC50
pIC50: −log10 of the molar value.
Property: pIC50

O=C1CC[C@H](N2Cc3c(OCc4ccc(CN5CCOCC5)cc4)cccc3C2=O)C(=O)N1 [Test compound] | 8.74

---

Test system: IL-2
Assay: T-cell costimulation: IL-2 production (immobilized anti-CD3, ELISA)
Format: cell-based
Settings: Homo sapiens, 48 h, read-out: EC50 for co-stimulated IL-2 production by T cells
Property: EC50 (µM)

Nc1cccc2c1C(=O)N(C1CCC(=O)NC1=O)C2=O (stereo not shown) [pomalidomide] | 0.01

---

Parameter IC50: see the listing below.
System: IgG
Test: IgG production in normal B cell / PBMC differentiation cultures (ELISA)
Conditions: Homo sapiens, PBMC, read-out: IgG IC50 (nM) Normal (n = 3)
Property: IC50

O=C1CC[C@H](N2Cc3c(OCc4ccc(CN5CCOCC5)cc4)cccc3C2=O)C(=O)N1 | 2.1 nM
Nc1cccc2c1C(=O)N(C1CCC(=O)NC1=O)C2=O (stereo not drawn) [pomalidomide] | 63 nM
CCOc1cc([C@@H](CS(C)(=O)=O)N2C(=O)c3cccc(NC(C)=O)c3C2=O)ccc1OC | > 10000 nM

---

Test system: NK cell IFN-γ production
Experiment: NK IgG-induced interferon-gamma (IFN-gamma) assay
Assay type: cell-based
Conditions: Homo sapiens, 48 h
Property: EC50 (nM)

O=C1CCC(N2Cc3c(OCc4ccc(CN5CCOCC5)cc4)cccc3C2=O)C(=O)N1 (racemic) [Racemate] | 37
O=C1CC[C@H](N2Cc3c(OCc4ccc(CN5CCOCC5)cc4)cccc3C2=O)C(=O)N1 [Test compound] | 12
O=C1CC[C@@H](N2Cc3c(OCc4ccc(CN5CCOCC5)cc4)cccc3C2=O)C(=O)N1 [R-enantiomer] | 16

---

System: MIP-1α
Assay: LPS-stimulated hPBMC cytokine production: MIP-1α
Type: cell-based
Conditions: Homo sapiens, 18 h, read-out: MIP-1α IC50 (μM)
Property: IC50

O=C1CCC(N2Cc3c(OCc4ccc(CN5CCOCC5)cc4)cccc3C2=O)C(=O)N1 (racemic) [Racemate] | 0.19 µM

---

System: IgG
Assay: IgG production by SLE patient PBMC (ELISA)
Settings: Homo sapiens, read-out: IgG IC50 (nM) SLE (n = 3)
Parameter IC50: see the listing below.
Property: IC50 (nM)

Nc1cccc2c1C(=O)N(C1CCC(=O)NC1=O)C2=O (stereo not drawn) [pomalidomide] | 19
O=C1CC[C@H](N2Cc3c(OCc4ccc(CN5CCOCC5)cc4)cccc3C2=O)C(=O)N1 | 3.2

---

Tested on: IL-6
Assay: LPS-stimulated hPBMC cytokine production: IL-6
Assay type: cell-based
Conditions: Homo sapiens; LPS 1 ng/ml, 18 hours
Parameter IC50: see the listing below.
Property: IC50 (nM)

O=C1CC[C@@H](N2Cc3c(OCc4ccc(CN5CCOCC5)cc4)cccc3C2=O)C(=O)N1 [R-enantiomer] | 83
O=C1CC[C@H](N2Cc3c(OCc4ccc(CN5CCOCC5)cc4)cccc3C2=O)C(=O)N1 | 3.8
O=C1CCC(N2Cc3c(OCc4ccc(CN5CCOCC5)cc4)cccc3C2=O)C(=O)N1 (racemic) [Racemate] | 10
